Test system: homoserine transsuccinylase
Experiment: Homoserine transsuccinylase activity test (Lee et al.), 5,5'-dithiobis(2-nitrobenzoic acid), absorption at 412 nm, with and without SAM
Format: biochemical, E. coli
Conditions: cell extract; 3 mM homoserine, 0.3 mM succinyl-CoA, 50 mM potassium phosphate buffer pH 7.5
Item-by-item account of Activity (U/mg)
The reply should be a number in U/mg, with the unit left off.

These solved cases illustrate the format of a correct answer.
molecule	quantity.measured	experimental.value
pSLmetAC: MetA variant with Cys instead of Asp at position 101 (protein, UniProt P07623 2-309, looked up, variant D101C) Homoserine …: PIRVPDELPAVNFLREENVFVMTTSRASGQEIRPLKVLILNLMPKKIETENQFLRLLSNSPLQVDIQLLRIDSRESRNTPAEHLNNFYCNFEDIQDQNFCGLIVTGAPLGLVEFNDVAYWPQIKQVLEWSKDHVTSTLFVCWAVQAALNILYGIPKQTRTEKLSGVYEHHILHPHALLTRGFDDSFLAPHSRYADFPAALIRDYTDLEILAETEEGDAYLFASKDKRIAFVTGHPEYDAQTLAQEFFRDVEAGLDPDVPYNYFPHNDPQNTPRASWRSHGNLLFTNWLNYYVYQITPYDLRHMNPTLD	Activity (U/mg)	0.51
pSLmetAI: MetA variant with Ile instead of Asp at position 101 (protein, UniProt P07623 2-309, looked up, variant D101I) Homoserine …: PIRVPDELPAVNFLREENVFVMTTSRASGQEIRPLKVLILNLMPKKIETENQFLRLLSNSPLQVDIQLLRIDSRESRNTPAEHLNNFYCNFEDIQDQNFIGLIVTGAPLGLVEFNDVAYWPQIKQVLEWSKDHVTSTLFVCWAVQAALNILYGIPKQTRTEKLSGVYEHHILHPHALLTRGFDDSFLAPHSRYADFPAALIRDYTDLEILAETEEGDAYLFASKDKRIAFVTGHPEYDAQTLAQEFFRDVEAGLDPDVPYNYFPHNDPQNTPRASWRSHGNLLFTNWLNYYVYQITPYDLRHMNPTLD	Activity (U/mg)	0.68

Please examine the following record next.
Q. Would you mind telling me what Activity (U/mg) value was observed for pSLmetA*0: MetA variant in which amino acid 294 is deleted (protein, UniProt P07623 2-309, looked up, variant Y294*) Homoserine …: PIRVPDELPAVNFLREENVFVMTTSRASGQEIRPLKVLILNLMPKKIETENQFLRLLSNSPLQVDIQLLRIDSRESRNTPAEHLNNFYCNFEDIQDQNFDGLIVTGAPLGLVEFNDVAYWPQIKQVLEWSKDHVTSTLFVCWAVQAALNILYGIPKQTRTEKLSGVYEHHILHPHALLTRGFDDSFLAPHSRYADFPAALIRDYTDLEILAETEEGDAYLFASKDKRIAFVTGHPEYDAQTLAQEFFRDVEAGLDPDVPYNYFPHNDPQNTPRASWRSHGNLLFTNWLNYYVQITPYDLRHMNPTLD ?
A. 0.33

Sourced from patent US7371551B1
